All figures here come from ChEMBL document CHEMBL3124867.

Each entry below carries its recorded IC50.
# assay.procedure: Displacement of [3H]-3-(1-(3-chloro-6-isopropyl-8-(trifluoromethyl)imidazo[1,2-a]pyridine-2-carbonyl)piperidin-4-yl)oxazolidin-2-one from HCV genotype 1b C-terminal His-tagged NS4B (1 to 261 aa) expressed in baculovirus infected SF9 cells after overnight incubation
# Parameters: species or system Hepatitis C virus subtype 1b
Report the figure in µM without appending any unit label.

O=C(c1nc2c(C(F)(F)F)cc(C3CC3)cn2c1Cl)N1CCC2(OCC3(CC3)CO2)C(O)C1 (racemic): 0.028

// field: IC50; key: O=C(c1nn2c(C(F)(F)F)cc(C3CC3)cc2c1Cl)N1CCN([C@@H]2C[C@H]3C[C@H]3[C@@H]2O)C(=O)C1 ; value = 0.018

// field: IC50; key: O=C(c1nc2c(C(F)(F)F)cc(C3CC3)cn2c1Cl)N1CCN(C(=O)[C@H]2C[C@H](O)C2)CC1 ; value = 0.1
